System: Human CaV2.2 channels (Homo sapiens)
Construct: expressed in transfected cells; host or cells: HEK293
Sequence (Q00975 whole entry): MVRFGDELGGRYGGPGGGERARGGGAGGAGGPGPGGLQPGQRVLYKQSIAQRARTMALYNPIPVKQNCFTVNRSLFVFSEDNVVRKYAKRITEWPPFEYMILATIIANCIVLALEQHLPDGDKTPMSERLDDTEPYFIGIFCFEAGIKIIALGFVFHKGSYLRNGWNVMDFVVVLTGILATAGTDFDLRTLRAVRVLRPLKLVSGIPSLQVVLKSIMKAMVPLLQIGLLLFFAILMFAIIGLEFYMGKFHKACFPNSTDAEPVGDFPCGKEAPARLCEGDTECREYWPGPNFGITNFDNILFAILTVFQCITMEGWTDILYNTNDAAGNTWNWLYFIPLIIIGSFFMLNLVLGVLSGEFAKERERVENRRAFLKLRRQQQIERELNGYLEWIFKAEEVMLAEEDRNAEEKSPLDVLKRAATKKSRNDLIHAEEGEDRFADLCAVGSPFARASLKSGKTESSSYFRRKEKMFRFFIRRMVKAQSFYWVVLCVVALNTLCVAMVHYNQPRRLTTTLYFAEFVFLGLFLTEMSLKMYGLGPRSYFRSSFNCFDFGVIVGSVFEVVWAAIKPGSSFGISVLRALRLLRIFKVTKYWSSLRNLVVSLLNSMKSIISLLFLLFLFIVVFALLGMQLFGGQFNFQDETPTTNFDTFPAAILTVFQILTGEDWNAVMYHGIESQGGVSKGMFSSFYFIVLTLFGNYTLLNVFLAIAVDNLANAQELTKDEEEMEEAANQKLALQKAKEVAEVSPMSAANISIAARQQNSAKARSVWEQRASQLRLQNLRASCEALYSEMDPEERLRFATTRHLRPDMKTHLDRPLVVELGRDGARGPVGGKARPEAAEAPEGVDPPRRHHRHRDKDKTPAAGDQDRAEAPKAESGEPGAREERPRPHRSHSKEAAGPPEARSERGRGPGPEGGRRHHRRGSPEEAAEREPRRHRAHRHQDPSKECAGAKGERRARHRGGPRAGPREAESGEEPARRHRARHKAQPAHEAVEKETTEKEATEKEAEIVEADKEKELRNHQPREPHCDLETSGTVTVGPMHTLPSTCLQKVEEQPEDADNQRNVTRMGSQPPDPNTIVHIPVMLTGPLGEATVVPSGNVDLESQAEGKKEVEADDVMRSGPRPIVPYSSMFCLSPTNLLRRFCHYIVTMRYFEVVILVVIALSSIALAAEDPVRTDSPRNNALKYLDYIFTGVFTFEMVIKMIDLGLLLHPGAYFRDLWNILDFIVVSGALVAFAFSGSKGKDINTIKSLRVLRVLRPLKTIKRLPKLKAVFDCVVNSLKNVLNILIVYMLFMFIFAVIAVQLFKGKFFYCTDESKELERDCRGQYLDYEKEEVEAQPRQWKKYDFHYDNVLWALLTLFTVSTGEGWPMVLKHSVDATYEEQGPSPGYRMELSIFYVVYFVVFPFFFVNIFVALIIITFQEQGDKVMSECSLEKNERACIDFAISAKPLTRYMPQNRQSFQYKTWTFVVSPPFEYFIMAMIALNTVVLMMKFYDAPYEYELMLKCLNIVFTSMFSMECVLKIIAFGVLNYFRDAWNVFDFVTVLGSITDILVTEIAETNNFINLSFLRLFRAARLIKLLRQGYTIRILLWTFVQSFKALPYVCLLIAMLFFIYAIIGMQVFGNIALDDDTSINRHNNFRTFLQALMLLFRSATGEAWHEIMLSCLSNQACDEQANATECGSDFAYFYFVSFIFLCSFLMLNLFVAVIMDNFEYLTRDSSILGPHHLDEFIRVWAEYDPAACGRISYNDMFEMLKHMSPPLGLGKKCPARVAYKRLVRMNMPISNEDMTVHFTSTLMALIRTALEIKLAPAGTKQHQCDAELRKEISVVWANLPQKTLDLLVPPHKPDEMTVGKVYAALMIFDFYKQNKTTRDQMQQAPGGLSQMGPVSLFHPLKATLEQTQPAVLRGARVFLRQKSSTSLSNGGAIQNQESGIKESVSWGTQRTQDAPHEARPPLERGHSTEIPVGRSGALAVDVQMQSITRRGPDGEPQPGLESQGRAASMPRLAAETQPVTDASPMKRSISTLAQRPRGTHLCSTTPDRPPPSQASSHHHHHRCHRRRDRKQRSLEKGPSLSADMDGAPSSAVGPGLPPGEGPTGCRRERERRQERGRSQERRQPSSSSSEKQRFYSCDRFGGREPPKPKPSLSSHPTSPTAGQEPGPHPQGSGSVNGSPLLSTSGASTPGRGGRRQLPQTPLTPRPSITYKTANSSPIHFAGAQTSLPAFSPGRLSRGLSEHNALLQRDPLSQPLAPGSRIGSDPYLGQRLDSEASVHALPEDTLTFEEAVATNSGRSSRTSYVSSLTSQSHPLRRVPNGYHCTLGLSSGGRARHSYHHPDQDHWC
Sequence (P54284 whole entry, further chain): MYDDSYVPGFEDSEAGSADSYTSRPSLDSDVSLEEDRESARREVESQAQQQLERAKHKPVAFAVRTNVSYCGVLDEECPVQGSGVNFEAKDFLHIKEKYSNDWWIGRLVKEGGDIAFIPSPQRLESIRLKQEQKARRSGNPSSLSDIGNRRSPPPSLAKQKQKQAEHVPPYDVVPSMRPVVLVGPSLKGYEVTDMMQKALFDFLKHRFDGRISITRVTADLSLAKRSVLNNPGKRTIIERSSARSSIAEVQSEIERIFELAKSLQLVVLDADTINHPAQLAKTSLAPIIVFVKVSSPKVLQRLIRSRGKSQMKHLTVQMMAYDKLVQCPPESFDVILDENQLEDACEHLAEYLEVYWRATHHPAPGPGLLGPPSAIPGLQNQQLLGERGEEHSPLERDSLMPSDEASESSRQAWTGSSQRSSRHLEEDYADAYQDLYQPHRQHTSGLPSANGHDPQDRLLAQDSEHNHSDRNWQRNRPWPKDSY
Sequence (P54289 25-1103, further chain): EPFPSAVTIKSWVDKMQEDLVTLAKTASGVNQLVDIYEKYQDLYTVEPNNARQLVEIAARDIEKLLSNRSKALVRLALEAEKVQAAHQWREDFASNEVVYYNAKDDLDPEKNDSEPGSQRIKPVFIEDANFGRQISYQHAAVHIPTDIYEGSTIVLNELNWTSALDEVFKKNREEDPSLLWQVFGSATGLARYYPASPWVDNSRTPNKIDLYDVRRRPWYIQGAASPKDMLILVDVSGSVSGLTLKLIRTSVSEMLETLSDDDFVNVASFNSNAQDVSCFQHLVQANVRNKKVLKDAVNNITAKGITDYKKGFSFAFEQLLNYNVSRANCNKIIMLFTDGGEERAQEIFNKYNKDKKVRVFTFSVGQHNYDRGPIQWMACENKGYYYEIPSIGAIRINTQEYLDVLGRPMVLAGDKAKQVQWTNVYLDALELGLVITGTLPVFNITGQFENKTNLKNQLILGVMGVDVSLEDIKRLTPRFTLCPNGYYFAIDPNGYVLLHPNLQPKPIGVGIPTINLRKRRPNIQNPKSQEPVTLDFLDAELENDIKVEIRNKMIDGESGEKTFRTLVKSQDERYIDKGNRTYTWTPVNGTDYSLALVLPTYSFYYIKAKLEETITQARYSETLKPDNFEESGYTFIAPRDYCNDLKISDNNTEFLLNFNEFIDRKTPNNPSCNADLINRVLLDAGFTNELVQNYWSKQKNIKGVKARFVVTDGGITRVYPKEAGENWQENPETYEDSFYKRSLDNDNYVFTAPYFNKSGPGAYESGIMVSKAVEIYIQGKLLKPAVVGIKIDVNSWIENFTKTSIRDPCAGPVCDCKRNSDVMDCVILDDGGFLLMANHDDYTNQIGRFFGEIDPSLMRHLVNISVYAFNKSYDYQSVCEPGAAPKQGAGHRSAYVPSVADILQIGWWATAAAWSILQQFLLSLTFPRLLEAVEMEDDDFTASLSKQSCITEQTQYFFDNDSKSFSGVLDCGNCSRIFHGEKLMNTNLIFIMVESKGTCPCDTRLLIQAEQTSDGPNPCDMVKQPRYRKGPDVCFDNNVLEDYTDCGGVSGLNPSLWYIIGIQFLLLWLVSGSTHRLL
Assay Summary: Fluorescent (FLIPR) assay for CaV2.2 channels using potassium depolarization to induce channel opening
Type: cell-based
Condition: 3 μM compound; 30 mM KCl assay buffer (inactivated channel state); HEK293 cells stably expressing human CaV2.2; read-out: Activity Category: %-Inhib (CaV2.2) @3 μM @30 mM KCl
Test Readout: inhibition at 3 µM

Request: Form: Entry = Cc1c(-c2ccc(Cl)cc2)c(C(=O)N(Cc2ccccc2)CC(C)(C)C)n(C)c1C(F)(F)F [Example 003] | System = Human CaV2.2 channels (Homo sapiens) | inhibition at 3 µM = ____
Result: 40 to 75%

Request: Please answer likewise for Cc1c(-c2ccc(Cl)cn2)c(C(=O)N(C)Cc2ccnn2C)n(C(C)C)c1C(F)(F)F [Example 114]
Result: 40 to 75%

Request: Next entry: CN(CCS(C)(=O)=O)C(=O)c1c(-c2ccc(F)cc2)cc(C(F)(F)F)n1CC1CCCO1 (centres unmarked) [Example 078]
Result: 40 to 75%

Request: And what about the compound Cc1c(-c2ccc(Cl)cc2)c(C(=O)N2CCS(=O)(=O)C(C)(C)C2)n(C2CC2)c1C(F)(F)F [Example 044] ?
Result: 75 to 95%

Request: Another compound to check: CN(CC(C)(C)C)C(=O)c1c(-c2ccc(Cl)cc2)cc(C(F)(F)F)n1CC1(C#N)CC1 [Example 100]
Result: 75 to 95%

Request: Try the compound Cc1c(-c2ccc(Cl)cc2)c(C(=O)N2CCOCC2)n(CC2(N)CC2)c1C(F)(F)F [Example 095]
Result: 75 to 95%

Request: Ok, now Cc1c(-c2ccc(Cl)cc2)c(C(=O)N2CCOC(C)(C)C2)n(CC(C)C)c1C(F)(F)F [Example 064]
Result: 75 to 95%

Request: What would you report for Cc1cnc(CN(C)C(=O)c2c(-c3ccc(F)cc3)cc(C(F)(F)F)n2CC2CCCO2)cn1 (centres unmarked) [Example 077] ?
Result: 75 to 95%

Request: Also CCn1c(C(=O)N(C)CC(C)(C)C)c(-c2ccc(Cl)cc2)c(C)c1C(F)(F)F [Example 005] ?
Result: 40 to 75%

Request: Again, but for Cc1c(-c2ccc(Cl)cc2)c(C(=O)N(Cc2ccccc2)C2CCOCC2)n(C)c1C(F)(F)F [Example 001]
Result: 75 to 95%

Request: Thanks! And Cc1c(-c2ccc(Cl)cc2)c(C(=O)N(C)CC(C)(C)C(N)=O)n(CC(C)C)c1C(F)(F)F [Example 052] ?
Result: 75 to 95%

Request: Quick one: Cc1c(-c2ccc(Cl)cc2)c(C(=O)N2CCOCC2)n(C)c1C(F)(F)F [Example 004]
Result: 75 to 95%

Request: And the next one, Cc1c(-c2ccc(Cl)cn2)c(C(=O)N(C)C(C)C)n(C(C)C)c1C(F)(F)F [Example 120] ?
Result: 75 to 95%

Request: Same for Cc1c(-c2ncc(Cl)cn2)c(C(=O)N2CCOC(C)(C)C2)n(C(C)C)c1C(F)(F)F [Example 121]
Result: 40 to 75%

Request: // repeat for Cc1c(-c2ccc(Cl)cc2)c(C(=O)N(C)CCS(C)(=O)=O)n(C(C)C)c1C(F)(F)F [Example 110] and report
Result: 75 to 95%

Request: One more compound: Cc1c(-c2ccc(Cl)cc2)c(C(=O)N2CC3CC2CO3)n(CC(C)C)c1C(F)(F)F (centres unmarked) [Example 104]
Result: > 95%

Request: And for CN(CC(C)(C)CO)C(=O)c1c(-c2ccc(F)cc2)cc(C(F)(F)F)n1CC1CCCO1 (centres unmarked) [Example 074] ?
Result: 75 to 95%

Request: Param item: Cc1c(-c2ccc(Cl)cc2)c(C(=O)N2CCOC(C)(C)C2)n(C2CCC2)c1C(F)(F)F [Example 042]
Result: 75 to 95%

Request: How about Cc1c(-c2ccc(Cl)cc2)c(C(=O)N(C)CC(C)(C)O)n(C2CC2)c1C(F)(F)F [Example 018] ?
Result: 75 to 95%

Request: Record: Cc1c(-c2ccc(Cl)cc2)c(C(=O)N2CCOCC2)n(CC2(O)CCCC2)c1C(F)(F)F [Example 096]
Result: 75 to 95%

Request: What would you report for Cc1c(-c2ccc(Cl)cc2)c(C(=O)N2CCOCC2)n(CC2CCOCC2)c1C(F)(F)F [Example 097] ?
Result: > 95%

Request: Another compound to look at: CN(CC(C)(C)C)C(=O)c1c(-c2ccc(Cl)cc2)cc(C(F)(F)F)n1CC1CCCN1 (centres unmarked) [Example 091]
Result: > 95%

Request: And for CN(C(=O)c1c(-c2ccc(F)cc2)cc(C(F)(F)F)n1CC1CCCO1)C1CCOCC1 (centres unmarked) [Example 070] ?
Result: 75 to 95%

Request: Next entry: Cc1c(-c2ccc(Cl)cc2)c(C(=O)N2CCOCC2)n(CC#CC2CC2)c1C(F)(F)F [Example 086]
Result: > 95%

Request: Next record, please: CN(C(=O)c1c(-c2ccc(Cl)cc2)cc(C(F)(F)F)n1C1CC1)C1CCOCC1 [Example 015]
Result: 75 to 95%

Request: Moving on to the next compound: Cc1cc(CN(C)C(=O)c2c(-c3ccc(F)cc3)cc(C(F)(F)F)n2CC(C)C)no1 [Example 047]
Result: > 95%

This collection of values is drawn from patent US20160289186A1.
